Target: CRBN-DDB1 (Homo sapiens (Human), UniProt Q96SW2)
Sequence (Q96SW2 whole entry): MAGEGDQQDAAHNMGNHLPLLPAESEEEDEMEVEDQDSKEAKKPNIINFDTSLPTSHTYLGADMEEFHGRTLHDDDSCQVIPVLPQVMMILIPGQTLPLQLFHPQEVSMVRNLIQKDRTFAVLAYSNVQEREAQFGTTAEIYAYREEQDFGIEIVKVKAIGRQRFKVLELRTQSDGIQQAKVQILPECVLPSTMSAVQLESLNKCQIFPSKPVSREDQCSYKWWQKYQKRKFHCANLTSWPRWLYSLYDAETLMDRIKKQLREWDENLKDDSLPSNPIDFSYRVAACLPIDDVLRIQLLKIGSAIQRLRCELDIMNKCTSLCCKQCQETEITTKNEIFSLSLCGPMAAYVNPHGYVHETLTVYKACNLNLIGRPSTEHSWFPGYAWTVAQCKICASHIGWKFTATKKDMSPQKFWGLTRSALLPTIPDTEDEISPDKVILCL
Sequence (Q16531 whole entry partner): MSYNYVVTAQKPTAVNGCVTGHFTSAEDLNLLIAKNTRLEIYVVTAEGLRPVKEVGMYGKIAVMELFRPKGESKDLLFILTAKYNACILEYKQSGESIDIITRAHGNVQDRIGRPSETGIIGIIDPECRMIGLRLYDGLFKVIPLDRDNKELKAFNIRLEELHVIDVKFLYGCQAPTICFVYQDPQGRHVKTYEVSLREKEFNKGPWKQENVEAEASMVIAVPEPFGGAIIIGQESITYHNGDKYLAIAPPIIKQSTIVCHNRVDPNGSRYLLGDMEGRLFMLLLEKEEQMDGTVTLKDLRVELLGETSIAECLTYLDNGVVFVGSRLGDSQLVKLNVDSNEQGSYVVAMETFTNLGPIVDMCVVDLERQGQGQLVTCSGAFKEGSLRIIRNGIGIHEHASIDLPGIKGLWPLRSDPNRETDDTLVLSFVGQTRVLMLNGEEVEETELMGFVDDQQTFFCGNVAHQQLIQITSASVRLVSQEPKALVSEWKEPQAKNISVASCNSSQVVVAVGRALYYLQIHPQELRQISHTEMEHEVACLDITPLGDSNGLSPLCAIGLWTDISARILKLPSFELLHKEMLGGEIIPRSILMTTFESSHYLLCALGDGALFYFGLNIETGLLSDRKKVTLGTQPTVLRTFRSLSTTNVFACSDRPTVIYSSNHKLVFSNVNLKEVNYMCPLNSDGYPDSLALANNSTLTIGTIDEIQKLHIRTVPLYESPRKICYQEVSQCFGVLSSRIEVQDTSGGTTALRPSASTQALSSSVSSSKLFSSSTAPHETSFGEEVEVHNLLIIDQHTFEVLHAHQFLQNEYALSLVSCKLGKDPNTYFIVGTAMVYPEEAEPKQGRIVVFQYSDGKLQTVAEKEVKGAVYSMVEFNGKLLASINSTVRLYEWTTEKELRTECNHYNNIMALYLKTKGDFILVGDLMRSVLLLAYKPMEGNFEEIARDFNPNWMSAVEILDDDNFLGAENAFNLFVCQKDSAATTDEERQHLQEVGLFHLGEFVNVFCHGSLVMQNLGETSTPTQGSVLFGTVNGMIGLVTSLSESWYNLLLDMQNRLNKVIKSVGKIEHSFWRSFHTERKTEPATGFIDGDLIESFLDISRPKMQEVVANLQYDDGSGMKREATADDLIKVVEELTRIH
Test: Compound binding to CRBN by HTRF assay
Settings: HTRF class; Cereblon binding
Procedure: Compound activity was monitored in a Homogenous Time-Resolved Fluorescence (HTRF) assay using 1-[5-({2-[2-(2-{[2-(2,6-dioxopiperidin-3-yl)-1,3-dioxo-2,3-dihydro-1H-isoindol-4-yl]oxy}acetamido)ethoxy]ethyl}carbamoyl)pentyl]-3,3-dimethyl-2-[(1E,3E)-5-[(2E)-1,3,3-trimethyl-5-sulfo-2,3-dihydro-1H-indol-2-ylidene]penta-1,3-dien-1-yl]-3H-indol-1-ium-5-sulfonate as a fluorescent probe. Biochemical assays were conducted in Greiner white 384 well HiBase plates (Cat. No 784075-25) in 20 μL total volume. […]
The entries below come with measured EC50 values attached.

## Input Endpoint output: EC50 of CC(C)(C(=O)NCc1cc(Cl)c([C@]2(F)CCC(=O)NC2=O)c(Cl)c1)c1ccccc1 (single isomer, unassigned) [Compound 273] . Value?
## Output 0.1 to 1 µM

## Input Look up EC50: CC(C)(C(=O)NCc1cc(Cl)c(C2CCC(=O)NC2=O)c(Cl)c1)c1ncc(OC(F)F)cn1 (centres unmarked) [Compound 188]
## Output ≤ 0.1 µM

## Input Returns the measured EC50 for the input compound. Input: Cc1coc(C(C)(C)C(=O)NCc2cc(Cl)c(C3CCC(=O)NC3=O)c(Cl)c2)n1 (centres unmarked) [Compound 197]
## Output 0.1 to 1 µM

## Input Reported EC50 for Cn1cc(C(C)(C)C(=O)NCc2cc(Cl)c(C3CCC(=O)NC3=O)c(Cl)c2)ccc1=O (centres unmarked) [Compound 67] : what is it?
## Output 0.1 to 1 µM

## Input Sample CC(C)(C(=O)NCc1cc(Cl)c(C2CCC(=O)NC2=O)c(Cl)c1)c1cccc(NS(C)(=O)=O)c1 (centres unmarked) [Compound 54] — what was its EC50?
## Output ≤ 0.1 µM

## Input What does the data say about its EC50? Entry: CC(C)(C(=O)NCc1cc(Cl)c(C2CCC(=O)NC2=O)c(Cl)c1)c1cnc(C2CC2)cn1 (centres unmarked) [Compound 232]
## Output 0.1 to 1 µM

## Input Requested read-out: EC50. Entry: Cc1ncc(C(C)(C)C(=O)NCc2cc(Cl)c(C3CCC(=O)NC3=O)c(Cl)c2)o1 (centres unmarked) [Compound 282]
## Output 0.1 to 1 µM

## Input Please look up its EC50: COCc1nc(C(C)(C)C(=O)NCc2cc(Cl)c(C3CCC(=O)NC3=O)c(Cl)c2)ncc1C (centres unmarked) [Compound 233]
## Output 0.1 to 1 µM
